Target: CAR (Homo sapiens, UniProt Q14994)
Sequence (Q14994 1-352): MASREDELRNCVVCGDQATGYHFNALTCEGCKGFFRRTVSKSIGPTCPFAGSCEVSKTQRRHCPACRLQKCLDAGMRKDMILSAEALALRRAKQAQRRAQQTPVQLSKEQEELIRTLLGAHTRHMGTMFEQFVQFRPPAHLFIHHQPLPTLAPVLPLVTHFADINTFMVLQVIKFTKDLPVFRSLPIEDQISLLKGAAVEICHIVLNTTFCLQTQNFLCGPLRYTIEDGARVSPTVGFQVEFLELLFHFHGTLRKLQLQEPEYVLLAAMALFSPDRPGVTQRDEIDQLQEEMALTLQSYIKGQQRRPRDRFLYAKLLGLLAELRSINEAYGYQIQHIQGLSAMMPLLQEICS
Test Details: CAR coactivator recruitment (Lanthascreen)
Assay type: biochemical
Where a name gives a salt, the structure may show the parent alone.
Measure: EC50

Req: Tell me the measured EC50 of CCC1C(O)C2C3CCC(C(C)CC(C)OS(=O)(=O)O)C3(C)CCC2C2(C)CCC(O)CC12 (stereo not drawn) [Compound 2A, Sodium Salt] , please.
Resp: 84 µM

Req: Tell me the measured EC50 of CC[C@H]1[C@@H](O)[C@@H]2[C@H](C[C@H](O)[C@]3(C)[C@@H]([C@H](C)CCCS(=O)(=O)[O-])CC[C@@H]23)[C@@]2(C)CC[C@@H](O)C[C@@H]12.[Na+] [Compound 3A, Sodium Salt] , please.
Resp: > 250 µM

Req: Tell me the measured EC50 of "C[C@H](CCC(=O)O)[C@H]1CC[C@H]2[C@@H]3[C@H](O)C[C@@H]4C[C@H](O)CC[C@]4(C)[C@H]3CC[C@]12C" , please.
Resp: > 250 µM
